system: BxPC3 human pancreatic adenocarcinoma cells; experiment: Cell proliferation assay with Alamar Blue (AB), BxPC3; type: cell-based; settings: Homo sapiens, BXPC-3, read-out: AB: BxPC3
Grouping rule (IC50): low range: < 2 µM; mid range: ≥ 2 µM and < 10 µM; high range: ≥ 10 µM

Q) Which category does the recorded IC50 put `O=C1NC(=O)/C(=C/c2cnn3c(NC4CC4)cc(SCc4ccccc4)nc23)N1` in?
A) high range

Q) Which category does the recorded IC50 put O=C1NC(=O)/C(=C/c2cnn3c(NC4CCN(C(=O)C5CC5)CC4)cc(Nc4cccc(Cl)c4)nc23)N1 [Example L5] in?
A) mid range

Q) Which category does the recorded IC50 put COC(=O)CN1CCC(Nc2cc(Nc3cccc(Cl)c3)nc3c(/C=C4\NC(=O)NC4=O)cnn23)CC1 [Example O5] in?
A) mid range

Q) Which category does the recorded IC50 put NCc1cccc(-c2cc(NC3CC3)n3ncc(/C=C4\NC(=O)NC4=O)c3n2)c1 [Example R4] in?
A) high range

Q) Which category does the recorded IC50 put O=C1NC(=O)/C(=C/c2cnn3c(NC4CC4)cc(-c4cccc(OCCN5CCOCC5)c4)nc23)N1 [Example A4] in?
A) high range

Q) Which category does the recorded IC50 put O=C1NC(=O)/C(=C/c2cnn3c(NCC4CC4)cc(NN4CCOCC4)nc23)N1 [Example Q2] in?
A) mid range

Q) Which category does the recorded IC50 put CN1CCC(Nc2cc(NC3CC3)n3ncc(/C=C4\NC(=O)NC4=O)c3n2)CC1 [Example V2] in?
A) low range

Q) Which category does the recorded IC50 put O=C1NC(=O)/C(=C/c2cnn3c(NCc4cccnc4)cc(Nc4cccc(Cl)c4)nc23)N1 [Example I6] in?
A) mid range

* * *

system: MDAMB453; assay: Cell proliferation assay with Alamar Blue (AB), MDAMB453; format: cell-based; conditions: MDAMB453 cells, read-out: AB: MDAMB453 IC50
# strict inequality: IC50 < 20 µM yields Met, everything else yields Not met

Past entries and their recorded results:
CN1C(=O)NC(=Cc2cnn3c(NC4CC4)cc(Nc4ccccc4F)nc23)C1=O; Not met
Cc1c(Nc2ccc(C#N)cc2Cl)nc2c(C=C3NC(=O)NC3=O)cnn2c1NC1CC1; Met
CN(C)CCCOc1ccc(Nc2cc(NC3CC3)n3ncc(C=C4NC(=O)NC4=O)c3n2)cc1Cl; Met
Cc1c(Nc2cccc(Cl)c2)nc2c(C=C3NC(=O)NC3=O)cnn2c1NC1CC1; Not met
Cc1c(Nc2ccc(-n3cccn3)cc2)nc2c(/C=C3\NC(=O)NC3=O)cnn2c1NC1CC1; Met

Q) Confirm or reject: IC50 of `Cc1c(Nc2ccc(C#N)cc2F)nc2c(C=C3NC(=O)NC3=O)cnn2c1NC1CC1` lies strictly below 20 µM
A) Met

* * *

Each entry below carries its recorded pIC50.
biological target: recombinant human PIM2 (Homo sapiens (Human)); assay: PIM-2 assay (33P-ATP filter binding); format: biochemical; conditions: read-out: PIM2: IC50 (5 μM ATP); 5 μM ATP
Sequence (Q9P1W9 whole entry): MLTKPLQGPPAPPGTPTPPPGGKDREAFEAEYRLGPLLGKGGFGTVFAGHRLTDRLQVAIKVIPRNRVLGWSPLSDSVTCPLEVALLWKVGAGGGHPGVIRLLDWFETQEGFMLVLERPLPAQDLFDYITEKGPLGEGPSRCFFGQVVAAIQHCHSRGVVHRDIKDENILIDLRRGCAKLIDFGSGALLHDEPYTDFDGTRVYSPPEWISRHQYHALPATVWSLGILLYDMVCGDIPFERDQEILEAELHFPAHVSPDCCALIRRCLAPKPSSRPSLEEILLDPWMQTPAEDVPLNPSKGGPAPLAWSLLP
Worth noting: pIC50 values are minus log10 of concentrations stated in mol/L.

Recorded results for 2 compounds are shown here.
O=C1NC(=O)C(=Cc2cnn3c(NC4CC4)cc(-c4csc(CNC5CCCC5)c4)nc23)N1; 5.84
CC(=O)NC1CCC(Nc2cc(NC3CC3)n3ncc(/C=C4\NC(=O)NC4=O)c3n2)CC1 (stereo not drawn) [Example D3]; 6.32

Continue with the next compound.
Reported pIC50 of CC1CN(Cc2cc(-c3cc(NC4CC4)n4ncc(C=C5NC(=O)NC5=O)c4n3)cs2)CC(C)O1 (stereo not drawn) : 5.80
